# study_target: Factor Xa (Homo sapiens, UniProt P00742)
# Sequence (P00742 235-488 limits assumed): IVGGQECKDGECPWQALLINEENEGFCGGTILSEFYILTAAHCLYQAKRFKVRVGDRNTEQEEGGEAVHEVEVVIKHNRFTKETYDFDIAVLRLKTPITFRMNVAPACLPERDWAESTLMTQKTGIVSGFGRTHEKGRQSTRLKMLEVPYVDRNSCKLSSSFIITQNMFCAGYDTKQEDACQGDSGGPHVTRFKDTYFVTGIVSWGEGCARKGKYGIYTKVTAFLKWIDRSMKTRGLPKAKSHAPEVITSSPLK
# Sequence (P00742 41-179 partner limits assumed): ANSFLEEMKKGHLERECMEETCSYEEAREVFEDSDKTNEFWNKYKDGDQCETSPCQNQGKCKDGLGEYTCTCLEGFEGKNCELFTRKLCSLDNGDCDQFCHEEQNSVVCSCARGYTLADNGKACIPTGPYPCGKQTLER
# assay_explanation: Factor Xa enzyme inhibition assay (purified enzyme)
# Format: biochemical
observation_type: IC50 (µM)
Just the number in µM, nothing appended.

Given the compound CCC(C)C(NC(=O)C(CC(C)C)NC(=O)NCc1ccc(Cl)c(Cl)c1)C(=O)NC(CCCNC(=N)N)C(=O)c1nccs1 (stereo not shown) , what is its reported IC50?
84.9

---

# study_target: native Factor XIa (Homo sapiens, UniProt P03951)
# Construct: cleavage generates the same light chain segment as is found for human Factor XIa protein; purchased Haematological Associates FXIA01
# Sequence (P03951 388-625 limits assumed): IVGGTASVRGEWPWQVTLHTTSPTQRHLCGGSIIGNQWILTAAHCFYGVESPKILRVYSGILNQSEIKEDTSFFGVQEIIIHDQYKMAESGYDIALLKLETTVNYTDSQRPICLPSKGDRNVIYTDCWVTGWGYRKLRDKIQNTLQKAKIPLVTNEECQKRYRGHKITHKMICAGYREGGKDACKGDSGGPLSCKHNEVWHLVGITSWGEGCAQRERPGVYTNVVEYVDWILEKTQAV
# Sequence (P03951 19-387 partner limits assumed): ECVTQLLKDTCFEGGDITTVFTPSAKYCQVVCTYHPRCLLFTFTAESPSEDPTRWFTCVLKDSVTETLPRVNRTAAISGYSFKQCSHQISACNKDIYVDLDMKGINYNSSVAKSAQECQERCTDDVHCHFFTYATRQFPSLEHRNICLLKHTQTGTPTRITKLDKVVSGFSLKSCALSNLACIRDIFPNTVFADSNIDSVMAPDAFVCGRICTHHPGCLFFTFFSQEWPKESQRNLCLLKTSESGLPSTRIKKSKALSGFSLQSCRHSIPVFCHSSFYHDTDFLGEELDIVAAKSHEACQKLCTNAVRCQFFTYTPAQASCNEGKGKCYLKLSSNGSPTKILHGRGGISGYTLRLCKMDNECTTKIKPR
# assay_explanation: Factor XIa enzyme inhibition assay (fluorogenic substrate pyroGlu-Pro-Arg-AMC)
# Type: biochemical
observation_type: pIC50
// returns pIC50 (minus log10 of molar concentration), number only

CC(C)CC(NC(=O)NCc1ccc(Cl)c(Cl)c1)C(=O)NC(C(=O)NC(CCCNC(=N)N)C(=O)c1nccs1)C(C)C (centres unmarked) : 7.19

// next item, pIC50 requested
Reported pIC50 for native Factor XIa (Homo sapiens, UniProt P03951), given CCC(C)C(NC(=O)C(CC(C)C)NC(=O)NCc1ccc(Cl)c(Cl)c1)C(=O)NC(CCCNC(=N)N)C(=O)c1nccs1 (centres unmarked) ?
7.11

---

# study_target: thrombin (Homo sapiens, UniProt P00734)
# assay_explanation: Thrombin enzyme inhibition assay (purified enzyme)
# Format: biochemical
# test_parameters: Table 12; read-out: Thrombin IC50
observation_type: IC50 (nM)
Only the number, expressed in nM, is required.

CC(C)C(NC(=O)C(O)c1ccccc1)C(=O)NC(CCCNC(=N)N)C(=O)c1nccs1 (stereo not shown) : 253

Endpoint output: IC50 of COC(=O)c1cccc(CS(=O)(=O)NC(C(=O)NC(CC(C)C)C(=O)NC(CCCNC(=N)N)C(=O)c2nccs2)C2CCCCC2)c1 (stereo not shown) . Value?
20

Fill in: IC50 of CC(C)C(NC(=O)C(O)c1cccc(Cl)c1)C(=O)NC(CCCNC(=N)N)C(=O)c1nccs1 (stereo not shown) is ___
225

Value lookup for IC50; key = CC(C)CC(NC(=O)NCc1ccc(Cl)c(Cl)c1)C(=O)NC(C(=O)NC(CCCNC(=N)N)C(=O)c1nccs1)C(C)C (stereo not shown)
615

---

Let's look at some compounds and their measured pIC50.
# study_target: native Factor XIa (Homo sapiens, UniProt P03951)
# Construct: cleavage generates the same light chain segment as is found for human Factor XIa protein; purchased Haematological Associates FXIA01
# assay_explanation: Factor XIa enzyme inhibition assay (fluorogenic substrate pyroGlu-Pro-Arg-AMC)
# Assay type: biochemical
# test_parameters: Table 12, compounds of formula I (R^0 is 2-thiazole); read-out: FXIa IC50
Notebook: values listed as pIC50 are -log10 of the concentration (mol/L).

CC(C)C(NC(=O)C(O)c1cccc(Cl)c1)C(=O)NC(CCCNC(=N)N)C(=O)c1nccs1 (centres unmarked) : 6.94

Consider now this further compound.
Data request, read-out pIC50, for COC(=O)c1cccc(CS(=O)(=O)NC(C(=O)NC(CC(C)C)C(=O)NC(CCCNC(=N)N)C(=O)c2nccs2)C2CCCCC2)c1 (centres unmarked)
8.30

---

# study_target: UniProtKB P00742
# assay_explanation: Factor Xa enzyme inhibition assay (purified enzyme)
# Type: biochemical
# test_parameters: Table 12; read-out: FXa IC50
observation_type: pIC50
# reply with the number alone; pIC50 is -log10 of concentration in mol/L

Check out these entries, answers already filled in.
COC(=O)c1cccc(CS(=O)(=O)NC(C(=O)NC(CC(C)C)C(=O)NC(CCCNC(=N)N)C(=O)c2nccs2)C2CCCCC2)c1 (stereo not shown) : 7.51
CC(C)C(NC(=O)C(O)c1cccc(Cl)c1)C(=O)NC(CCCNC(=N)N)C(=O)c1nccs1 (stereo not shown) : 5.63
CC(C)CC(NC(=O)NCc1ccc(Cl)c(Cl)c1)C(=O)NC(C(=O)NC(CCCNC(=N)N)C(=O)c1nccs1)C(C)C (stereo not shown) : 4.70

Now look at this entry.
API: value(readout=pIC50, system=UniProtKB P00742) for record CC(C)C(NC(=O)C(O)c1ccccc1)C(=O)NC(CCCNC(=N)N)C(=O)c1nccs1 (stereo not shown)
5.93

---

# study_target: UniProt P00734
# assay_explanation: Thrombin enzyme inhibition assay (purified enzyme)
# Type: biochemical
observation_type: IC50 (nM)
A number alone suffices; assume nM.

Recorded IC50 for CCC(C)C(NC(=O)C(CC(C)C)NC(=O)NCc1ccc(Cl)c(Cl)c1)C(=O)NC(CCCNC(=N)N)C(=O)c1nccs1 (stereo not shown) with UniProt P00734, please?
2650
